Experiment: Mouse pharmacokinetics, brain tissue levels (LC-MS/MS)
Assay type: in vivo
Conditions: mouse, brain, mouse brain tissue; Table 15, footnote: including IRN 12 result
metric: Cmax (ng/g)
Write the answer as a number in ng/g, unit excluded.

Quick note, Cmax for `Nc1nc(-c2c(Cl)cc(Cl)c3c2CCO3)c2[nH]ccc2n1` landed at 15800

----------
Tested on: P-gp (MDR1)
Test: MDR1-MDCK permeability assay
Type: in vitro ADME
Conditions: dog, read-out: B→A/A→B asymmetry
metric: efflux ratio
// return just the number, without any unit appended

Sample `Nc1nc(-c2c(Cl)cc(Cl)c3c2CCO3)c2[nH]ccc2n1` ; efflux ratio observed: 0.9

----------
Test: Mouse pharmacokinetics, brain tissue levels (LC-MS/MS)
Format: in vivo
Details: mouse, brain, mouse brain, 30 minutes post dose (C_0.5); read-out: Brain concentration, individual animals
metric: concentration at 30 min (ng/g)
I only need the number, in ng/g, no unit after it.

Note to self: concentration at 30 min recorded for Nc1nc(-c2c(Cl)cc(Cl)c3c2CCO3)c2[nH]ccc2n1 [compound 20] was 11600

----------
Reported IC50 values are given for each entry in this list.
Molecular target: truncated alpha-Hsp90 protein (Homo sapiens)
Assay: Hsp90 biochemical assay (fluorescence polarization)
Settings: footnotes (1)-(9) of Table 3, read-out: Hsp90 FP assay result
Give your result in nM as a bare value.

Some solved entries appear below for comparison.
1) COc1cc(-c2nc(N)nc3c2CCC3)c(Cl)cc1Cl [compound 12] = 1700
2) CCOC(=O)c1cc2c(-c3c(Cl)cc(Cl)c4c3CCO4)nc(N)nc2s1 [compound 23] = 11100

Here is the next item to consider.
Measured IC50, Nc1nc2c(c(-c3c(Cl)cc(Cl)c4c3CCO4)n1)CCC2 [compound 13] : 1800

----------
Assay: Mouse pharmacokinetics, brain tissue levels (LC-MS/MS)
Format: in vivo
Details: mouse brain tissue; Table 14, footnote: excluding IRN 12 result
metric: AUC(0-inf) (ng·h/mL)
# unit: ng·h/mL | format: bare number

Nc1nc(-c2c(Cl)cc(Cl)c3c2CCO3)c2[nH]ccc2n1 [compound 20] has a reported AUC(0-inf) of 22900

----------
Experiment: Mouse pharmacokinetics, brain tissue levels (LC-MS/MS)
Type: in vivo
Conditions: mouse brain tissue; Table 14, footnote: excluding IRN 12 result; read-out: Tmax
metric: Tmax (min)
Numeric only. Scale: min

Looking up Nc1nc(-c2c(Cl)cc(Cl)c3c2CCO3)c2[nH]ccc2n1 [compound 20] , I see its Tmax listed as 15

----------
Assay: Mouse pharmacokinetics, brain tissue levels (LC-MS/MS)
Assay type: in vivo
Conditions: mouse, brain, mouse brain tissue; Table 14, footnote: excluding IRN 12 result
metric: Cmax
Hey, just the number and the unit after it is fine.

For reference, reported Cmax for `Nc1nc(-c2c(Cl)cc(Cl)c3c2CCO3)c2[nH]ccc2n1` stands at 10500 ng/g

----------
Test: Mouse pharmacokinetics, brain tissue levels (LC-MS/MS)
Format: in vivo
Conditions: mouse, brain, mouse brain, 1 hour post dose (D_1); read-out: Brain concentration, individual animals
Protocol: Plasma and brain samples were taken pre-dose and at post dose time points of pre-dose, 15 and 30 minutes, 1, 2, and 8 hours. The pre-dose group was represented by 5 animals, whereas the post-dose groups were represented by 3 animals. Bioanalysis of mouse plasma samples for compound 20 was conducted by protein precipitation and LC-MS/MS with compound 22 as the internal standard. […]
metric: concentration at 1 h
Report as: number unit

Just so you know, measured concentration at 1 h for `Nc1nc(-c2c(Cl)cc(Cl)c3c2CCO3)c2[nH]ccc2n1` came out at 7490 ng/g

----------
Assay: Mouse pharmacokinetics, brain tissue levels (LC-MS/MS)
Assay type: in vivo
Details: mouse, brain homogenate, mouse brain homogenate, 8.00 h; read-out: Mean Group Concentration, Homogenate
metric: concentration at 8 h (ng/mL)
Quick reminder: number only, in ng/mL, skip the unit.

Consider `Nc1nc(-c2c(Cl)cc(Cl)c3c2CCO3)c2[nH]ccc2n1` . Its measured concentration at 8 h is 3.63

----------
Assay: Solubility in pH 7.4 buffer
Type: physicochemical
Conditions: pH 7.4, aqueous buffer, pH of 7.4
metric: solubility

Recorded result, `Nc1nc(-c2c(Cl)cc(Cl)c3c2CCO3)c2[nH]ccc2n1` , solubility: 30 µM

----------
Assay: Mouse pharmacokinetics, brain tissue levels (LC-MS/MS)
Type: in vivo
Conditions: mouse, brain homogenate, mouse brain homogenate, 15 minutes post dose (B_0.25); 0.00 = below LLOQ 0.988 ng/mL; read-out: Homogenate concentration, individual animals
metric: concentration at 15 min (ng/mL)
Please give a number only; it is taken to be in ng/mL.

response.value for `Nc1nc(-c2c(Cl)cc(Cl)c3c2CCO3)c2[nH]ccc2n1` (field: concentration at 15 min) = 2300

----------
Experiment: Mouse pharmacokinetics, plasma levels (LC-MS/MS)
Format: in vivo
Details: mouse, plasma, 0.25 h, n=3 incl. IRN 12, read-out: Mean Group Concentration, plasma
metric: concentration at 0.25 h

So for `Nc1nc(-c2c(Cl)cc(Cl)c3c2CCO3)c2[nH]ccc2n1` , the logged concentration at 0.25 h turned out to be 9970 ng/mL

----------
Experiment: Mouse pharmacokinetics, brain tissue levels (LC-MS/MS)
Format: in vivo
Conditions: mouse, brain, mouse brain, 15 minutes post dose (B_0.25); 0.00 = below LLOQ; read-out: Brain concentration, individual animals
metric: concentration at 15 min (ng/g)
Please reply with the bare figure in ng/g and do not write the unit itself.

// `Nc1nc(-c2c(Cl)cc(Cl)c3c2CCO3)c2[nH]ccc2n1` : concentration at 15 min value = 20700

----------
Test: Mouse pharmacokinetics, brain tissue levels (LC-MS/MS)
Format: in vivo
Conditions: mouse, brain homogenate, mouse brain homogenate, 2 hours post dose (E_2); read-out: Homogenate concentration, individual animals
metric: concentration at 2 h
Form field: result (number plus unit)

Notebook: Nc1nc(-c2c(Cl)cc(Cl)c3c2CCO3)c2[nH]ccc2n1 [compound 20] , concentration at 2 h read as 410 ng/mL

----------
Test: Mouse pharmacokinetics, plasma levels (LC-MS/MS)
Type: in vivo
Conditions: mouse, plasma, 15 minutes post dose (B_0.25), values above 8000 ng/mL out of range, indicative, read-out: Plasma concentration, individual animals
Protocol: Plasma and brain samples were taken pre-dose and at post dose time points of pre-dose, 15 and 30 minutes, 1, 2, and 8 hours. The pre-dose group was represented by 5 animals, whereas the post-dose groups were represented by 3 animals. Bioanalysis of mouse plasma samples for compound 20 was conducted by protein precipitation and LC-MS/MS with compound 22 as the internal standard. […]
metric: concentration at 15 min (ng/mL)
Provide the reading as a plain figure in ng/mL.

What the record says about Nc1nc(-c2c(Cl)cc(Cl)c3c2CCO3)c2[nH]ccc2n1 [compound 20] : concentration at 15 min is 2.66

----------
Assay: Mouse pharmacokinetics, brain tissue levels (LC-MS/MS)
Format: in vivo
Conditions: mouse, brain homogenate, mouse brain homogenate, 0.50 h; read-out: Mean Group Concentration, Homogenate
metric: concentration at 0.5 h (ng/mL)
Number only, in ng/mL; omit the unit.

Lab note: `Nc1nc(-c2c(Cl)cc(Cl)c3c2CCO3)c2[nH]ccc2n1` gave concentration at 0.5 h of 1150

----------
Test: Mouse pharmacokinetics, plasma levels (LC-MS/MS)
Type: in vivo
Details: mouse, plasma, Table 11, footnote: excluding IRN12 result
metric: AUC(0-inf) (ng·h/mL)
Dear colleague, please return just the value in ng·h/mL, with no unit written.

// sample Nc1nc(-c2c(Cl)cc(Cl)c3c2CCO3)c2[nH]ccc2n1 [compound 20] , its AUC(0-inf) was 27100

----------
Assay: Mouse pharmacokinetics, plasma levels (LC-MS/MS)
Type: in vivo
Settings: mouse, plasma, 1 hour post dose (D_1), read-out: Plasma concentration, individual animals
metric: concentration at 1 h (ng/mL)
Please state the figure in ng/mL; there is no need to write the unit.

Summary for this compound, Nc1nc(-c2c(Cl)cc(Cl)c3c2CCO3)c2[nH]ccc2n1 [compound 20] : concentration at 1 h is 6890

----------
Experiment: Mouse pharmacokinetics, plasma levels (LC-MS/MS)
Assay type: in vivo
Conditions: mouse, plasma, 8.00 h, read-out: Mean Group Concentration, plasma
metric: concentration at 8 h (ng/mL)
Your answer is read as ng/mL, so omit the unit and give the number.

Short answer for Nc1nc(-c2c(Cl)cc(Cl)c3c2CCO3)c2[nH]ccc2n1 [compound 20] : concentration at 8 h was 47.9

----------
Assay: Mouse pharmacokinetics, plasma levels (LC-MS/MS)
Format: in vivo
Settings: mouse, plasma, Table 11, footnote: excluding IRN12 result, read-out: Half life (t1/2) (converted)
metric: half-life (min)
// return numeric value only (unit: min, not printed)

Recorded result, Nc1nc(-c2c(Cl)cc(Cl)c3c2CCO3)c2[nH]ccc2n1 [compound 20] , half-life: 57.6

----------
Assay: Mouse pharmacokinetics, plasma levels (LC-MS/MS)
Type: in vivo
Settings: mouse, plasma, 2.00 h, read-out: Mean Group Concentration, plasma
Procedure: Plasma and brain samples were taken pre-dose and at post dose time points of pre-dose, 15 and 30 minutes, 1, 2, and 8 hours. The pre-dose group was represented by 5 animals, whereas the post-dose groups were represented by 3 animals. Bioanalysis of mouse plasma samples for compound 20 was conducted by protein precipitation and LC-MS/MS with compound 22 as the internal standard. […]
metric: concentration at 2 h
Please report the result as a number followed by the unit.

Consider Nc1nc(-c2c(Cl)cc(Cl)c3c2CCO3)c2[nH]ccc2n1 [compound 20] . Its measured concentration at 2 h is 4260 ng/mL

All values here come from patent US10336768B2.
